Data origin: paper PMC7367873

# key: entry, value: Difference (log2), untreated vs GFP
test system: GFP-14-3-3β; experiment: GFP-14-3-3β co-IP with LC-MS/MS, untreated GFP-14-3-3β versus GFP control (14-3-3 interactome); assay type: binding, human; details: GFP-14-3-3β co-IP LC-MS/MS; untreated vs GFP; student's t-test; label-free quantification, 3 replicates each
Write it as a number; the unit log2 goes unstated.

GNAS (protein, UniProt P63092 2-394, looked up) Guanine nucleotide-binding …: GCLGNSKTEDQRNEEKAQREANKKIEKQLQKDKQVYRATHRLLLLGAGESGKSTIVKQMRILHVNGFNGEGGEEDPQAARSNSDGEKATKVQDIKNNLKEAIETIVAAMSNLVPPVELANPENQFRVDYILSVMNVPDFDFPPEFYEHAKALWEDEGVRACYERSNEYQLIDCAQYFLDKIDVIKQADYVPSDQDLLRCRVLTSGIFETKFQVDKVNFHMFDVGGQRDERRKWIQCFNDVTAIIFVVASSSYNMVIREDNQTNRLQEALNLFKSIWNNRWLRTISVILFLNKQDLLAEKVLAGKSKIEDYFPEFARYTTPEDATPEPGEDPRVTRAKYFIRDEFLRISTASGDGRHYCYPHFTCAVDTENIRRVFNDCRDIIQRMHLRQYELL: 0.1054

## Input For the molecule SRPRB (protein, UniProt Q9Y5M8 1-271, looked up) Signal recognition particle …: MASADSRRVADGGGAGGTFQPYLDTLRQELQQTDPTLLSVVVAVLAVLLTLVFWKLIRSRRSSQRAVLLVGLCDSGKTLLFVRLLTGLYRDTQTSITDSCAVYRVNNNRGNSLTLIDLPGHESLRLQFLERFKSSARAIVFVVDSAAFQREVKDVAEFLYQVLIDSMGLKNTPSFLIACNKQDIAMAKSAKLIQQQLEKELNTLRVTRSAAPSTLDSSSTAPAQLGKKGKEFEFSQLPLKVEFLECSAKGGRGDVGSADIQDLEKWLAKIA , what Difference (log2), untreated vs GFP is on record?
## Output 1.397

## Input What do you get for RRP15 (protein, UniProt Q9Y3B9 2-282, looked up) RRP15-like protein: AAAAPDSRVSEEENLKKTPKKKMKMVTGAVASVLEDEATDTSDSEGSCGSEKDHFYSDDDAIEADSEGDAEPCDKENENDGESSVGTNMGWADAMAKVLNKKTPESKPTILVKNKKLEKEKEKLKQERLEKIKQRDKRLEWEMMCRVKPDVVQDKETERNLQRIATRGVVQLFNAVQKHQKNVDEKVKEAGSSMRKRAKLISTVSKKDFISVLRGMDGSTNETASSRKKPKAKQTEVKSEEGPGWTILRDDFMMGASMKDWDKESDGPDDSRPESASDSDT ?
## Output 0.6496

## Input Would you mind doing BASP1 (protein, UniProt P80723 2-227, looked up) Brain acid soluble protein 1: GGKLSKKKKGYNVNDEKAKEKDKKAEGAATEEEGTPKESEPQAAAEPAEAKEGKEKPDQDAEGKAEEKEGEKDAAAAKEEAPKAEPEKTEGAAEAKAEPPKAPEQEQAAPGPAAGGEAPKAAEAAAAPAESAAPAAGEEPSKEEGEPKKTEAPAAPAAQETKSDGAPASDSKPGSSEAAPSSKETPAATEAPSSTPKAQGPAASAEEPKPVEAPAANSDQTVTVKE as well?
## Output -1.2737

## Input Please give the result for GEMIN8 (protein, UniProt Q9NWZ8 1-242, looked up) Gem-associated protein 8: MAAVKASTSKATRPWYSHPVYARYWQHYHQAMAWMQSHHNAYRKAVESCFNLPWYLPSALLPQSSYDNEAAYPQSFYDHHVAWQDYPCSSSHFRRSGQHPRYSSRIQASTKEDQALSKEEEMETESDAEVECDLSNMEITEELRQYFAETERHREERRRQQQLDAERLDSYVNADHDLYCNTRRSVEAPTERPGERRQAEMKRLYGDSAAKIQAMEAAVQLSFDKHCDRKQPKYWPVIPLKF too.
## Output 0.1049
